# Assay system: T1, GST-hVEGF121 (human, UniProt P15692-9 27-147)
# T1 construct: plate coating of the VEGF ELISAs; also called human VEGF; not shown: glutathione S-transferase (GST) fusion partner
# T1 sequence (looked up): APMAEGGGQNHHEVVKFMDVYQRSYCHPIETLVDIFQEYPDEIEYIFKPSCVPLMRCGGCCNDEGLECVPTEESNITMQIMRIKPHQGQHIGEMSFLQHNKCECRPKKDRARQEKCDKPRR
# Assay notes: competition ELISA, coated GST-hVEGF, competitor Fc-VEGFR2
Value kind: IC50 (nM)
Return type: number; implicit unit nM.

Binder: Nb-V1 (VHH, carries the C-terminal c-myc tracer peptide and histidine tag; also called VHH Nb-V1) VHH: QVQLVESGGGLVQPGGSLRLSCAASGNSAEDRLYNSYTWFRQAPGQGLEAVAAISSHFSAGLTYYADSVKGRFTISRDNSKNTLYLQMNSLRAEDTAVYYCEITSHASHNDAWSTPRTVWGQGTLVTVSS
Measure unit: nM
Quantitative readout: 28.6
//
Binder: Nb-FV1 (bispecific antibody, Bispecific tandem VHH (bFGF and VEGF); with c-myc and histidine tag) QVQLVESGGGLVQPGGSLRLSCAASGTEDGRLLTLGGSWFRQAPGQGLEAVAAIGAGDRGGATYYADSVKGRFTISRDNSKNTLYLQMNSLRAEDTAVYYCTALYERQPQLAATKVARKWGQGTLVTVSSAHHSEDPSSKAPKAPAQVQLVESGGGLVQPGGSLRLSCAASGNSAEDRLYNSYTWFRQAPGQGLEAVAAISSHFSAGLTYYADSVKGRFTISRDNSKNTLYLQMNSLRAEDTAVYYCEITSHASHNDAWSTPRTVWGQGTLVTVSSAAAGSEQKLISEEDLNSHHHHHH
Measure unit: nM
Quantitative readout: 28.3
//
Binder: Nb-VF3 (bispecific antibody, Bispecific tandem VHH (VEGF and bFGF); with c-myc and histidine tag) QVQLVESGGGLVQPGGSLRLSCAASGNSAEDRLYNSYTWFRQAPGQGLEAVAAISSHFSAGLTYYADSVKGRFTISRDNSKNTLYLQMNSLRAEDTAVYYCEITSHASHNDAWSTPRTVWGQGTLVTVSSAHHSEDPSSKAPKAPAQVQLVESGGGLVQPGGSLRLSCAASGTEDGRLLTLGGSWFRQAPGQGLEAVAAIGAGDRGGATYYADSVKGRFTISRDNSKNTLYLQMNSLRAEDTAVYYCTALYERQPQLAATKVARKWGQGTLVTVSSAAAGSEQKLISEEDLNSHHHHHH
Measure unit: nM
Quantitative readout: 28.5

Specify IC50 for Nb-VV6 (VHH, Bivalent monospecific tandem VHH for VEGF, hinge spacer with cysteines replaced by alanines; with c-myc and histidine tag) QVQLVESGGGLVQPGGSLRLSCAASGNSAEDRLYNSYTWFRQAPGQGLEAVAAISSHFSAGLTYYADSVKGRFTISRDNSKNTLYLQMNSLRAEDTAVYYCEITSHASHNDAWSTPRTVWGQGTLVTVSSAHHSEDPSSKAPKAPAQVQLVESGGGLVQPGGSLRLSCAASGNSAQDRLYNSYTWFRQAPGQGLEAVAAISSHFSAGLTYYADSVKGRFTISRDNSKNTLYLQMNSLRAEDTAVYYCEITSHASHNDAWSTPRTVWGQGTLVTVSSAAAGSEQKLISEEDLNSHHHHHH and stop.
5.6
